pIC50: −log10 of the molar value.
For reference, pIC50 measured on sucrase from porcine small intestine (Sus scrofa, UniProt P56729):

[
  {
    "query_smiles": "OCC1=C[C@H](N[C@H]2C[C@](O)(CO)[C@@H](O)[C@H](O)[C@H]2O)[C@H](O)[C@@H](O)[C@@H]1O",
    "pIC50": 5.06
  },
  {
    "query_smiles": "OCC1=C[C@H](N[C@H]2C[C@](O)(CO)[C@@H](O[C@@H]3O[C@H](CO)[C@@H](O)[C@H](O)[C@H]3O)[C@H](O)[C@H]2O)[C@H](O)[C@@H](O)[C@@H]1O",
    "pIC50": 3.96
  }
]
